Test system: 475296-252-R-J1-PDC spheroid viability
assaySummary: Anticancer human tumor 475296-252-R-J1-PDC patient-derived rectal carcinoma cell line growth inhibition [PI3K]
conditionParameters: compound 1 µM; stronger effect = lower value; spheroids with HUVEC and MSC
// values below are reported viability, T/C
readout: viability, T/C

compound	recordedMeasurement
CC1(C)CCC(CN2CCN(c3ccc(C(=O)NS(=O)(=O)c4ccc(NCC5CCOCC5)c([N+](=O)[O-])c4)c(Oc4cnc5[nH]ccc5c4)c3)CC2)=C(c2ccc(Cl)cc2)C1	101% [middle of 4 runs]
Cn1nccc1Nc1nccc(-c2ccn(C(CO)c3ccc(Cl)c(F)c3)c(=O)c2)n1 (configuration not stated)	89.5% [middle of 4 runs]
CCCS(=O)(=O)Nc1ccc(F)c(C(=O)c2c[nH]c3ncc(-c4ccc(Cl)cc4)cc23)c1F	90.3% [middle of 4 runs]
Cc1nc(NC(=O)N2CCCC2C(N)=O)sc1-c1ccnc(C(C)(C)C(F)(F)F)c1 (configuration not stated)	99.7% [middle of 8 runs]
CCN1CCN(Cc2ccc(Nc3ncc(F)c(-c4cc(F)c5nc(C)n(C(C)C)c5c4)n3)nc2)CC1	92.4% [middle of 4 runs]
C[C@@H](NC(=O)c1ncnc(N)c1Cl)c1ncc(C(=O)Nc2cc(C(F)(F)F)c(Cl)cn2)s1	101% [middle of 4 runs]
C=CC(=O)N1CCN(c2nc(=O)n(-c3c(C)ccnc3C(C)C)c3nc(-c4c(O)cccc4F)c(F)cc23)C(C)C1 (configuration not stated)	105% [middle of 4 runs]
CC(C)NCC(C(=O)N1CCN(c2ncnc3c2C(C)CC3O)CC1)c1ccc(Cl)cc1 (configuration not stated)	76.1% [middle of 4 runs]
CC1(C)CCC(Nc2ncc(C(F)(F)F)c(-c3c[nH]c4c(P(C)(C)=O)c(C#N)ccc34)n2)CN1 (configuration not stated)	129% [middle of 4 runs]
COc1c(OCCCN2CCOCC2)ccc2c3n(c(=NC(=O)c4cnc(N)nc4)nc12)CCN3	68% [middle of 8 runs]
C#Cc1c(F)ccc2cc(O)cc(-c3ncc4c(N5CC6CCC(C5)N6)nc(OCC56CCCN5CC(F)C6)nc4c3F)c12 (configuration not stated)	70.1% [middle of 4 runs]
CNC(=O)c1ccc(N2C(=S)N(c3ccc(C#N)c(C(F)(F)F)c3)C(=O)C2(C)C)cc1F	99.5% [middle of 4 runs]

====

Tested on: 475296-252-R-J1-PDC spheroid viability
assaySummary: Anticancer human tumor 475296-252-R-J1-PDC cell line growth inhibition [PI3K];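 note: spheroids exposed to agents for seven days before readout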
conditionParameters: second compound 3.16 µM; first compound 1 µM; stronger effect = lower value; spheroids with HUVEC and MSC
// values below are reported viability, T/C

compound	viability, T/C, %
Cn1nccc1Nc1nccc(-c2ccn(C(CO)c3ccc(Cl)c(F)c3)c(=O)c2)n1 (stereo not drawn) + Cc1nc(NC(=O)N2CCCC2C(N)=O)sc1-c1ccnc(C(C)(C)C(F)(F)F)c1	79.1
C=CC(=O)N1CCN(c2nc(=O)n(-c3c(C)ccnc3C(C)C)c3nc(-c4c(O)cccc4F)c(F)cc23)C(C)C1 (stereo not drawn) + Cc1nc(NC(=O)N2CCCC2C(N)=O)sc1-c1ccnc(C(C)(C)C(F)(F)F)c1	87.2
CC1(C)CCC(CN2CCN(c3ccc(C(=O)NS(=O)(=O)c4ccc(NCC5CCOCC5)c([N+](=O)[O-])c4)c(Oc4cnc5[nH]ccc5c4)c3)CC2)=C(c2ccc(Cl)cc2)C1 + CC(Nc1ncnc2nc[nH]c12)c1cc2cccc(Cl)c2c(=O)n1-c1ccccc1	87.6

====

System: 475296-252-R-J1-PDC spheroid viability
assaySummary: Anticancer human tumor 475296-252-R-J1-PDC cell line growth inhibition [PI3K];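 note: spheroids exposed to agents for seven days before readout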
conditionParameters: second compound 1 µM; first compound 0.0316 µM; stronger effect = lower value; spheroids with HUVEC and MSC
Text: Combinatorial screen of targeted agents with the PI3K inhibitors inavolisib, alpelisib, duvelisib, and copanlisib in multi-cell type tumor spheroids A high-throughput screen of multi-cell type tumor spheroids was designed to identify active combinations of targeted small molecules and PI3K pathway inhibitors. […] Compounds. […] If the clinical Cmax for an agent had not been determined, the highest concentration tested was 10 microM. […]
// values below are reported viability, T/C

compound	target	viability, T/C
CC1(C)CCC(CN2CCN(c3ccc(C(=O)NS(=O)(=O)c4ccc(NCC5CCOCC5)c([N+](=O)[O-])c4)c(Oc4cnc5[nH]ccc5c4)c3)CC2)=C(c2ccc(Cl)cc2)C1 + CC(Nc1ncnc2nc[nH]c12)c1cc2cccc(Cl)c2c(=O)n1-c1ccccc1	475296-252-R-J1-PDC spheroid viability	86.6%
Cn1nccc1Nc1nccc(-c2ccn(C(CO)c3ccc(Cl)c(F)c3)c(=O)c2)n1 (configuration not stated) + CC(Nc1ncnc2nc[nH]c12)c1cc2cccc(Cl)c2c(=O)n1-c1ccccc1	475296-252-R-J1-PDC spheroid viability	97.8%
CNC(=O)c1ccc(N2C(=S)N(c3ccc(C#N)c(C(F)(F)F)c3)C(=O)C2(C)C)cc1F + Cc1nc(NC(=O)N2CCCC2C(N)=O)sc1-c1ccnc(C(C)(C)C(F)(F)F)c1	475296-252-R-J1-PDC spheroid viability	90.5%
CC(Cn1ccc(-c2ccc(C#N)c(Cl)c2)n1)NC(=O)c1cc(C(C)O)[nH]n1 (configuration not stated) + CC(Nc1ccc2c(c1)OCCn1cc(N3C(=O)OCC3C(F)F)nc1-2)C(N)=O	475296-252-R-J1-PDC spheroid viability	92%
CC(C)n1nc(-c2ccc3oc(N)nc3c2)c2c(N)ncnc21 + COc1c(OCCCN2CCOCC2)ccc2c3n(c(=NC(=O)c4cnc(N)nc4)nc12)CCN3	475296-252-R-J1-PDC spheroid viability	51.6%
Cn1ncnc1[C@H]1c2n[nH]c(=O)c3cc(F)cc(c23)N[C@@H]1c1ccc(F)cc1 + COc1c(OCCCN2CCOCC2)ccc2c3n(c(=NC(=O)c4cnc(N)nc4)nc12)CCN3	475296-252-R-J1-PDC spheroid viability	70.8%
CC(Cn1ccc(-c2ccc(C#N)c(Cl)c2)n1)NC(=O)c1cc(C(C)O)[nH]n1 (configuration not stated) + CC(Nc1ncnc2nc[nH]c12)c1cc2cccc(Cl)c2c(=O)n1-c1ccccc1	475296-252-R-J1-PDC spheroid viability	94.4%
Cn1ncnc1[C@H]1c2n[nH]c(=O)c3cc(F)cc(c23)N[C@@H]1c1ccc(F)cc1 + CC(Nc1ncnc2nc[nH]c12)c1cc2cccc(Cl)c2c(=O)n1-c1ccccc1	475296-252-R-J1-PDC spheroid viability	112%
CC1(C)CCC(CN2CCN(c3ccc(C(=O)NS(=O)(=O)c4ccc(NCC5CCOCC5)c([N+](=O)[O-])c4)c(Oc4cnc5[nH]ccc5c4)c3)CC2)=C(c2ccc(Cl)cc2)C1 + CC(Nc1ccc2c(c1)OCCn1cc(N3C(=O)OCC3C(F)F)nc1-2)C(N)=O	475296-252-R-J1-PDC spheroid viability	93.7%
C#Cc1c(F)ccc2cc(O)cc(-c3ncc4c(N5CC6CCC(C5)N6)nc(OCC56CCCN5CC(F)C6)nc4c3F)c12 (configuration not stated) + CC(Nc1ncnc2nc[nH]c12)c1cc2cccc(Cl)c2c(=O)n1-c1ccccc1	475296-252-R-J1-PDC spheroid viability	100%
Cn1ncnc1[C@H]1c2n[nH]c(=O)c3cc(F)cc(c23)N[C@@H]1c1ccc(F)cc1 + Cc1nc(NC(=O)N2CCCC2C(N)=O)sc1-c1ccnc(C(C)(C)C(F)(F)F)c1	475296-252-R-J1-PDC spheroid viability	92.6%
CNC(=O)c1ccc(N2C(=S)N(c3ccc(C#N)c(C(F)(F)F)c3)C(=O)C2(C)C)cc1F + CC(Nc1ncnc2nc[nH]c12)c1cc2cccc(Cl)c2c(=O)n1-c1ccccc1	475296-252-R-J1-PDC spheroid viability	97%
CC1(C)CCC(Nc2ncc(C(F)(F)F)c(-c3c[nH]c4c(P(C)(C)=O)c(C#N)ccc34)n2)CN1 (configuration not stated) + CC(Nc1ccc2c(c1)OCCn1cc(N3C(=O)OCC3C(F)F)nc1-2)C(N)=O	475296-252-R-J1-PDC spheroid viability	94.7%
CCN1CCN(Cc2ccc(Nc3ncc(F)c(-c4cc(F)c5nc(C)n(C(C)C)c5c4)n3)nc2)CC1 + Cc1nc(NC(=O)N2CCCC2C(N)=O)sc1-c1ccnc(C(C)(C)C(F)(F)F)c1	475296-252-R-J1-PDC spheroid viability	98.7%
C[C@@H](NC(=O)c1ncnc(N)c1Cl)c1ncc(C(=O)Nc2cc(C(F)(F)F)c(Cl)cn2)s1 + CC(Nc1ncnc2nc[nH]c12)c1cc2cccc(Cl)c2c(=O)n1-c1ccccc1	475296-252-R-J1-PDC spheroid viability	94.4%
Cn1ncc(Cl)c1-c1cc(C(=O)NC(CN)Cc2cccc(F)c2)sc1Cl (configuration not stated) + CC(Nc1ncnc2nc[nH]c12)c1cc2cccc(Cl)c2c(=O)n1-c1ccccc1	475296-252-R-J1-PDC spheroid viability	87.5%
C#Cc1c(F)ccc2cc(O)cc(-c3ncc4c(N5CC6CCC(C5)N6)nc(OCC56CCCN5CC(F)C6)nc4c3F)c12 (configuration not stated) + CC(Nc1ccc2c(c1)OCCn1cc(N3C(=O)OCC3C(F)F)nc1-2)C(N)=O	475296-252-R-J1-PDC spheroid viability	92.1%
